Numbers sourced from paper PMC10065799.

Target: c-Abl kinase domain (Mus musculus, UniProt P00520)
Sequence (P00520 242-493 limits assumed): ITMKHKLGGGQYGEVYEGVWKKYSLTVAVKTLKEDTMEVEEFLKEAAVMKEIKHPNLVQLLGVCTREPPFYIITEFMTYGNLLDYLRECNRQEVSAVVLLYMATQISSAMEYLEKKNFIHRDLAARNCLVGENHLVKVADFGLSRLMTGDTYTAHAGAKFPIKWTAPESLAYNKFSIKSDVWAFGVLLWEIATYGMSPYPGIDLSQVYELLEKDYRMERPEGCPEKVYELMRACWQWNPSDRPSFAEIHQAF
Test: pTyr-Var library bacterial peptide display kinase screen (enrichment scores);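 also: log2 fold change in enrichment of variant over reference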
Type: biochemical
Settings: fig5-data2, sheet "Abl"; Screen for the variant/reference peptide pair, pTyr-Var library
Category | rule: reported Screen within range, see zone 1 = under -1, zone 2 = from -1 up to 0.06, zone 3 = 0.06 and over

- chain_sequence: "LNGDRYFKGIV [DCX_Y64_R59L]"
  assay_system: "c-Abl kinase domain (Mus musculus, UniProt P00520)"
  category: "zone 3"

Query: In plain terms, what class is EWLRRYLKNGK [HLA-C_Y195_E197K] ?
Reply: zone 2

Query: Kindly state the category for this sequence: QRVLLYVQRET [GRHL3_Y518_R520Q]
Reply: zone 2

Query: Which of the defined bands does the recorded Screen of HLVLNYGVCFC [JAK2_Y613_V617F] sit within?
Reply: zone 3

Query: Returns: class label. Input: LPEHPYHSRPR [NDUFA8_Y142_N140H]
Reply: zone 2

Query: Looking at KGEDFYFVTCH [FHL1_Y149_C150Y_YF] , which class would you pick?
Reply: zone 1

Query: Band of VKFGAYINDFK [GLB1_Y488_N484K_YF] ?
Reply: zone 2
